Listed next: entries and their corresponding MIC.
Test system: Staphylococcus aureus
Assay: Antibacterial activity against methicillin-resistant Staphylococcus aureus assessed as inhibition of visual growth after 24 hrs
Format: functional
Answer in µg/mL, number only, no unit symbol.

Reference set (5 entries):
{"COMPOUND": "CN1C[C@](C#N)(C(=O)c2c[nH]c3ccccc23)[C@@H](c2cn(-c3ccccc3)nc2-c2ccccc2)[C@@]12C(=O)N(Cc1ccccc1)c1ccccc12", "MIC [µg/mL]": 500}
{"COMPOUND": "C=CCN1C(=O)[C@]2(c3ccccc31)[C@H](c1cn(-c3ccccc3)nc1-c1ccccc1)[C@@](C#N)(C(=O)c1c[nH]c3ccccc13)C1CSCN12 (stereo partly specified)", "MIC [µg/mL]": 500}
{"COMPOUND": "N#C[C@]1(C(=O)c2c[nH]c3ccccc23)C2CCCN2[C@]2(C(=O)Nc3ccc([N+](=O)[O-])cc32)[C@@H]1c1cn(-c2ccccc2)nc1-c1ccccc1 (stereo partly specified)", "MIC [µg/mL]": 500}
{"COMPOUND": "CN1C[C@](C#N)(C(=O)c2c[nH]c3ccccc23)[C@@H](c2cn(-c3ccccc3)nc2-c2ccccc2)[C@@]12C(=O)Nc1ccccc12", "MIC [µg/mL]": 500}
{"COMPOUND": "C#CCN1C(=O)[C@]2(c3ccccc31)[C@H](c1cn(-c3ccccc3)nc1-c1ccccc1)[C@@](C#N)(C(=O)c1c[nH]c3ccccc13)CN2C", "MIC [µg/mL]": 500}

# context switch: different compound, same MIC
Any idea what its MIC is? The compound is C=CCN1C(=O)[C@]2(c3ccccc31)[C@H](c1cn(-c3ccccc3)nc1-c1ccccc1)[C@@](C#N)(C(=O)c1c[nH]c3ccccc13)C1CCCN12 (stereo partly specified)
250
